- TEST SYSTEM: Tyrosine-protein phosphatase non-receptor type 11 (Homo sapiens, UniProt Q06124, F285S)
- Sequence (Q06124 as listed by the source F285S): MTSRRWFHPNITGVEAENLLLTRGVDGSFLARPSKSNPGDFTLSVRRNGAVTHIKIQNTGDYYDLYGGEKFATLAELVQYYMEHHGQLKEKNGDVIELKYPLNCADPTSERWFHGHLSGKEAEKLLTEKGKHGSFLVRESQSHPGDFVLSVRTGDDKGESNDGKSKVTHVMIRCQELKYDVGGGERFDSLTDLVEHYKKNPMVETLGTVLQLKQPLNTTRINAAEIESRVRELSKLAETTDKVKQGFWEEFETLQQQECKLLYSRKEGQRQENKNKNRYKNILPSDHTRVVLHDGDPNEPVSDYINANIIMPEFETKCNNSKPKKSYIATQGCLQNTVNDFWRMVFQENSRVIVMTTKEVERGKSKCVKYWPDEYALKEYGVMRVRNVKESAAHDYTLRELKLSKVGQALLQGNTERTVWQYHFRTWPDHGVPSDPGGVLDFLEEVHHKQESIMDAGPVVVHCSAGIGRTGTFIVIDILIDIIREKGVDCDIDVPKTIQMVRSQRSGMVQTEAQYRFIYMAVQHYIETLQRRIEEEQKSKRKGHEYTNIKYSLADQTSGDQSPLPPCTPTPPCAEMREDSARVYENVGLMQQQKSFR
- EXPERIMENTAL DETAILS: Inhibition of SHP2 F285S mutant (1 to 525 residues) (unknown origin) expressed in Escherichia coli BL21(DE3) using DIFMUP as substrate preincubated for 30 mins followed by substrate addition by fluorescence assay
pIC50: −log10 of the molar value.
REPORTED METRIC: pIC50

INSERT INTO assay_data (structure_smiles, reported_metric, result_number) VALUES
  ('COc1ccc2c(c1)sc1nc(O)c(Cc3ccccc3)c(=O)n12', 'pIC50', 5.00);
